- Test system: B16-F10
- Assay Notes: Induction of apoptosis in mouse B16F10 cells assessed as early apoptotic cells at antiproliferative IC50 after 24 hrs by Annexin V-FITC/propidium iodide staining based flow cytometry (reference value: 0.05 +/- 0.7%)
- Type: functional
Can you tell me Activity for the items I'm about to list?
Numbers only, in %.

Study these solved cases before continuing.
{"Cpd Smiles": "COCCOCCOCC(=O)NCCCCCCCCCCNC(=O)[C@]12CCC(C)(C)C[C@H]1C1=CC[C@@H]3[C@@]4(C)CC[C@H](O)C(C)(C)[C@@H]4CC[C@@]3(C)[C@]1(C)CC2", "Reported": 3.6}
{"Cpd Smiles": "CC1(C)CC[C@]2(C(=O)NCCCCCCCCCCN)CC[C@]3(C)C(=CC[C@@H]4[C@@]5(C)CC[C@H](O)C(C)(C)[C@@H]5CC[C@]43C)[C@@H]2C1", "Reported": 1.95}

Incoming: Write down the reported Activity of "CC1(C)CC[C@]2(C(=O)NCCCCCCCCCCN)CC[C@]3(C)C(=CC[C@@H]4[C@@]5(C)C[C@@H](O)[C@H](O)C(C)(C)[C@@H]5CC[C@]43C)[C@@H]2C1" , test system: B16-F10.
Outgoing: 2.6

---

- Assay Notes: Cytotoxicity against human WRL68 cells assessed as cell viability at antiproliferative IC50 of human HepG2 cells after 72 hrs by MTT assay relative to control
- Type: cell-based
- Study Conditions: read-out: Activity
Readout Name: viability at 72 h

These recorded examples may help you get a feel for the data.
{"Cpd Smiles": "CC1(C)CC[C@]2(C(=O)NCCCN)CC[C@]3(C)C(=CC[C@@H]4[C@@]5(C)CC[C@H](O)C(C)(C)[C@@H]5CC[C@]43C)[C@@H]2C1", "Readout Name": "viability at 72 h", "Reported": "54.2%"}
{"Cpd Smiles": "COCCOCCOCC(=O)NCCCCCCNC(=O)[C@]12CCC(C)(C)C[C@H]1C1=CC[C@@H]3[C@@]4(C)CC[C@H](O)C(C)(C)[C@@H]4CC[C@@]3(C)[C@]1(C)CC2", "Readout Name": "viability at 72 h", "Reported": "< 50%"}

Proceed to the following item.
Incoming: Need viability at 72 h of "CC1(C)CC[C@]2(C(=O)NCCCCCCN)CC[C@]3(C)C(=CC[C@@H]4[C@@]5(C)CC[C@H](O)C(C)(C)[C@@H]5CC[C@]43C)[C@@H]2C1" , thanks.
Outgoing: < 50%

---

What viability at 72 h was measured for each of the following?
- Assay Notes: Cytotoxicity against human WRL68 cells assessed as cell viability at antiproliferative IC50 of human HepG2 cells after 72 hrs by MTT assay relative to control
- Format: cell-based
- Study Conditions: read-out: Activity

Some entries whose results are on file:
{"Cpd Smiles": "COCCOCCOCC(=O)NCCCCCCCCCCNC(=O)[C@]12CCC(C)(C)C[C@H]1C1=CC[C@@H]3[C@@]4(C)C[C@@H](O)[C@H](O)C(C)(C)[C@@H]4CC[C@@]3(C)[C@]1(C)CC2", "viability at 72 h": "75.8%"}
{"Cpd Smiles": "CC1(C)CC[C@]2(C(=O)NCCCCCCCCCCN)CC[C@]3(C)C(=CC[C@@H]4[C@@]5(C)CC[C@H](O)C(C)(C)[C@@H]5CC[C@]43C)[C@@H]2C1", "viability at 72 h": "88.5%"}

Give viability at 72 h for each listed item.
1. COCCOCCOCC(=O)NCCCCCCCCCCNC(=O)[C@]12CCC(C)(C)C[C@H]1C1=CC[C@@H]3[C@@]4(C)CC[C@H](O)C(C)(C)[C@@H]4CC[C@@]3(C)[C@]1(C)CC2
2. CC1(C)CC[C@]2(C(=O)NCCCCCCCCCCN)CC[C@]3(C)C(=CC[C@@H]4[C@@]5(C)C[C@@H](O)[C@H](O)C(C)(C)[C@@H]5CC[C@]43C)[C@@H]2C1
3. CC1(C)CC[C@]2(C(=O)NCCCCCCN)CC[C@]3(C)C(=CC[C@@H]4[C@@]5(C)C[C@@H](O)[C@H](O)C(C)(C)[C@@H]5CC[C@]43C)[C@@H]2C1

Outgoing:
51.4%
< 50%
64%
